- Test system: ASH-3 (Thyroid Gland Carcinoma);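 further: after 72 h of two-drug dosing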
- Assay Overview: Bliss excess, mean over the matrix (fraction); higher = more synergy
compounds and their reported Bliss excess
Write no unit; give the number alone.

Completed entries (count: 3):
// field: Bliss excess; key: CN(C)CCCOc1ccc(-c2ccc3ncc4c(c3c2)n(C2CCOCC2)c(=O)n4C)cn1 [AZD0156] + O=C(c1cc(Cc2n[nH]c(=O)c3ccccc23)ccc1F)N1CCN(C(=O)C2CC2)CC1 [Olaparib] (first compound max 3 µM, partner max 3 µM) ; value = -0.0311

// field: Bliss excess; key: COc1cccc(OCCCN)c1-c1cc(Nc2cnc(C#N)cn2)n[nH]1 [Prexasertib] + CCc1c2c(nc3ccc(O)cc13)-c1cc3c(c(=O)n1C2)COC(=O)[C@]3(O)CC [SN-38] (first compound max 1 µM, 7x7, partner max 0.3 µM) ; value = 0.0624

// field: Bliss excess; key: Cc1c2c(nn1C)CSCc1cc(n(C)n1)CSc1cc(c3ccccc3c1)OCCCc1c(C(=O)O)n(C)c3c-2c(Cl)ccc13 [AZD5991] + CCN(CCO)CCCOc1ccc2c(Nc3cc(CC(=O)Nc4cccc(F)c4)[nH]n3)ncnc2c1 [AZD2811] (first compound max 1 µM, 7x7, partner max 1 µM) ; value = -0.014

Here is the next item to consider.
// field: Bliss excess; key: Cn1cnc2c(F)c(Nc3ccc(Br)cc3Cl)c(C(=O)NOCCO)cc21 [Selumetinib] + C[C@@H]1COCCN1C2=NC(=NC(=C2)C3(CC3)[S@](=N)(=O)C)C4=C5C=CNC5=NC=C4 [AZD6738] (first compound max 10 µM, 7x7, partner max 10 µM) ; value = 0.0892

* * *

compounds and their reported combination Emax
- System: OCUM-1 (Gastric Carcinoma)
- Assay Overview: combination Emax (second highest fraction inhibited in the dose matrix, 72 h); higher = more inhibition; extreme values may be limits of the assay
Write no unit; give the number alone.

Field combination Emax (OCUM-1 (Gastric Carcinoma)), entry CCc1c2c(nc3ccc(O)cc13)-c1cc3c(c(=O)n1C2)COC(=O)[C@]3(O)CC [SN-38] + O=C(c1cc(Cc2n[nH]c(=O)c3ccccc23)ccc1F)N1CCN(C(=O)C2CC2)CC1 [Olaparib] (first compound max 0.3 µM, 7x7, partner max 10 µM) : 0.645

Field combination Emax (OCUM-1 (Gastric Carcinoma)), entry CS(=O)(=O)CCNCc1ccc(-c2ccc3ncnc(Nc4ccc(OCc5cccc(F)c5)c(Cl)c4)c3c2)o1 [Lapatinib] + Cn1cnc2c(F)c(Nc3ccc(Br)cc3Cl)c(C(=O)NOCCO)cc21 [Selumetinib] (first compound max 10 µM, 7x7, partner max 10 µM) : 0.95

Field combination Emax (OCUM-1 (Gastric Carcinoma)), entry Cn1cnc2c(F)c(Nc3ccc(Br)cc3Cl)c(C(=O)NOCCO)cc21 [Selumetinib] + C[C@@H]1COCCN1C2=NC(=NC(=C2)C3(CC3)[S@](=N)(=O)C)C4=C5C=CNC5=NC=C4 [AZD6738] (first compound max 10 µM, 7x7, partner max 10 µM) : 0.951

Others:
Field combination Emax (OCUM-1 (Gastric Carcinoma)), entry N#Cc1cnc(Nc2cc(NC[C@H]3CNCCO3)c(C(F)(F)F)cn2)cn1 [SRA737] + O=c1[nH]cc(F)c(=O)[nH]1 [5-Fluorouracil] (first compound max 10 µM, 7x7, partner max 20 µM) : 0.416

* * *

- Test system: KINGS-1 (Low Grade Glioma)
- Assay Overview: combination Emax (second highest fraction inhibited in the dose matrix, 72 h); higher = more inhibition; extreme values may be limits of the assay
Readout Label: combination Emax
Write no unit; give the number alone.

// field: combination Emax; key: CCN(CCO)CCCOc1ccc2c(Nc3cc(CC(=O)Nc4cccc(F)c4)[nH]n3)ncnc2c1 [AZD2811] + O=C(c1cc(Cc2n[nH]c(=O)c3ccccc23)ccc1F)N1CCN(C(=O)C2CC2)CC1 [Olaparib] (first compound max 1 µM, 7x7, partner max 10 µM) ; value = 0.241

// field: combination Emax; key: NC1(C(=O)N[C@@H](CCO)c2ccc(Cl)cc2)CCN(c2ncnc3[nH]ccc23)CC1 [Capivasertib] + CC(=O)c1c(C)c2cnc(Nc3ccc(N4CCNCC4)cn3)nc2n(C2CCCC2)c1=O [Palbociclib] (first compound max 10 µM, 7x7, partner max 10 µM) ; value = 0.414

// field: combination Emax; key: Cn1cnc2c(F)c(Nc3ccc(Br)cc3Cl)c(C(=O)NOCCO)cc21 [Selumetinib] + C=CCn1c(=O)c2cnc(Nc3ccc(N4CCN(C)CC4)cc3)nc2n1-c1cccc(C(C)(C)O)n1 [AZD1775] (first compound max 10 µM, partner max 1 µM) ; value = 0.361

Others:
// field: combination Emax; key: Cc1c2c(nn1C)CSCc1cc(n(C)n1)CSc1cc(c3ccccc3c1)OCCCc1c(C(=O)O)n(C)c3c-2c(Cl)ccc13 [AZD5991] + CC(=O)O[C@H]1C(=O)[C@@]2(C)[C@H]([C@H](OC(=O)c3ccccc3)[C@]3(O)C[C@H](OC(=O)[C@H](O)[C@@H](NC(=O)c4ccccc4)c4ccccc4)C(C)=C1C3(C)C)[C@]1(OC(C)=O)CO[C@@H]1C[C@@H]2O [Paclitaxel] (first compound max 1 µM, 7x7, partner max 3 µM) ; value = 0.407

* * *

molecules and their reported combination Emax
- Tested on: JHH-7 (Hepatocellular Carcinoma)
- Assay Overview: combination Emax (second highest fraction inhibited in the dose matrix, 72 h); higher = more inhibition; extreme values may be limits of the assay
Write no unit; give the number alone.

Completed entries (count: 4):
// field: combination Emax; key: CC1(C)CCC(CN2CCN(c3ccc(C(=O)NS(=O)(=O)c4ccc(NCC5CCOCC5)c([N+](=O)[O-])c4)c(Oc4cnc5[nH]ccc5c4)c3)CC2)=C(c2ccc(Cl)cc2)C1 [Venetoclax] + CS(=O)(=O)CCNCc1ccc(-c2ccc3ncnc(Nc4ccc(OCc5cccc(F)c5)c(Cl)c4)c3c2)o1 [Lapatinib] (first compound max 1 µM, 7x7, partner max 10 µM) ; value = 0.335

// field: combination Emax; key: CN(CCO)CC[C@H](CSc1ccccc1)Nc1ccc(S(=O)(=O)NC(=O)c2ccc(N3CCC([C@@H](O)c4ccccc4-c4ccc(Cl)cc4)CC3)cc2)cc1S(=O)(=O)C(F)(F)F [AZD4320] + CS(=O)(=O)CCNCc1ccc(-c2ccc3ncnc(Nc4ccc(OCc5cccc(F)c5)c(Cl)c4)c3c2)o1 [Lapatinib] (first compound max 1 µM, 7x7, partner max 10 µM) ; value = 0.971

// field: combination Emax; key: C[C@@H](c1ccc2nccn2c1)n1nnc2ncc(-c3cnn(C)c3)nc21 [Savolitinib] + Cc1c2c(nn1C)CSCc1cc(n(C)n1)CSc1cc(c3ccccc3c1)OCCCc1c(C(=O)O)n(C)c3c-2c(Cl)ccc13 [AZD5991] (first compound max 1 µM, 7x7, partner max 1 µM) ; value = 0.205

// field: combination Emax; key: CC1(C)CCC(CN2CCN(c3ccc(C(=O)NS(=O)(=O)c4ccc(NCC5CCOCC5)c([N+](=O)[O-])c4)c(Oc4cnc5[nH]ccc5c4)c3)CC2)=C(c2ccc(Cl)cc2)C1 [Venetoclax] + C[C@@H](Nc1cc(F)cc(F)c1)c1cc(C(=O)N(C)C)cc2c(=O)cc(N3CCOCC3)oc12 [AZD8186] (first compound max 1 µM, 7x7, partner max 3 µM) ; value = 0.0915

Others:
// field: combination Emax; key: CN(CCO)CC[C@H](CSc1ccccc1)Nc1ccc(S(=O)(=O)NC(=O)c2ccc(N3CCC([C@@H](O)c4ccccc4-c4ccc(Cl)cc4)CC3)cc2)cc1S(=O)(=O)C(F)(F)F [AZD4320] + C[C@@H](Nc1cc(F)cc(F)c1)c1cc(C(=O)N(C)C)cc2c(=O)cc(N3CCOCC3)oc12 [AZD8186] (first compound max 1 µM, 7x7, partner max 3 µM) ; value = 0.368

// field: combination Emax; key: COc1nnc2ccc(N3CCC(c4ccc(OCCN5CCN(C)C(=O)[C@H]5C)cc4)CC3)nn12 [AZD5153] + C=CCn1c(=O)c2cnc(Nc3ccc(N4CCN(C)CC4)cc3)nc2n1-c1cccc(C(C)(C)O)n1 [AZD1775] (first compound max 1 µM, partner max 1 µM) ; value = 0.316

* * *

compounds and their reported combination Emax
- Tested on: NCI-H2405 (Lung Adenocarcinoma)
- Assay Overview: combination Emax (second highest fraction inhibited in the dose matrix, 72 h); higher = more inhibition; extreme values may be limits of the assay
Write no unit; give the number alone.

// field: combination Emax; key: Cc1c2c(nn1C)CSCc1cc(n(C)n1)CSc1cc(c3ccccc3c1)OCCCc1c(C(=O)O)n(C)c3c-2c(Cl)ccc13 [AZD5991] + C[C@@H]1COCCN1C2=NC(=NC(=C2)C3(CC3)[S@](=N)(=O)C)C4=C5C=CNC5=NC=C4 [AZD6738] (first compound max 1 µM, 7x7, partner max 10 µM) ; value = 0.353

// field: combination Emax; key: CN(CCO)CC[C@H](CSc1ccccc1)Nc1ccc(S(=O)(=O)NC(=O)c2ccc(N3CCC([C@@H](O)c4ccccc4-c4ccc(Cl)cc4)CC3)cc2)cc1S(=O)(=O)C(F)(F)F [AZD4320] + CCN(CCO)CCCOc1ccc2c(Nc3cc(CC(=O)Nc4cccc(F)c4)[nH]n3)ncnc2c1 [AZD2811] (first compound max 1 µM, 7x7, partner max 1 µM) ; value = 0.137

Here is the next item to consider.
// field: combination Emax; key: Cn1cnc2c(F)c(Nc3ccc(Br)cc3Cl)c(C(=O)NOCCO)cc21 [Selumetinib] + CCN(CCO)CCCOc1ccc2c(Nc3cc(CC(=O)Nc4cccc(F)c4)[nH]n3)ncnc2c1 [AZD2811] (first compound max 10 µM, 7x7, partner max 1 µM) ; value = 0.408
